Recorded values, source patent US8067032B2.

assay: Solubility of itraconazole in NMP; format: physicochemical; settings: organic solvent or mixture, room temperature (approximately 22° C.)
experimental-readout: solubility (mg/mL)

CCC(C)n1ncn(-c2ccc(N3CCN(c4ccc(OCC5COC(Cn6cncn6)(c6ccc(Cl)cc6Cl)O5)cc4)CC3)cc2)c1=O (stereo not shown)
160
